Tested on: Streptococcus sp. 'group A'
Assay: Streptococcus pyogenes SK(-)GAS viability under kanamycin – luminescence, BacTiterGlo, confirmation, counter-screen for streptokinase expression inhibitor project, dose response (AID 1900)
Format: functional, organism-based
The source made the active and inactive calls.
Measured EC50 of individual entries

// lookup EC50 | system=Streptococcus sp. 'group A' | key= Cc1ccc(C)c(C(=O)COC(=O)c2cc(Cl)nc3ccccc23)c1
60.6 µM (active)

---

Measured AC50 of individual entries
Target: Cytochrome P450 1A2 (Homo sapiens, UniProt P05177);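 note: PubChem cytochrome P450 panel assay, CYP1A2 panel member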
Sequence (P05177 whole entry): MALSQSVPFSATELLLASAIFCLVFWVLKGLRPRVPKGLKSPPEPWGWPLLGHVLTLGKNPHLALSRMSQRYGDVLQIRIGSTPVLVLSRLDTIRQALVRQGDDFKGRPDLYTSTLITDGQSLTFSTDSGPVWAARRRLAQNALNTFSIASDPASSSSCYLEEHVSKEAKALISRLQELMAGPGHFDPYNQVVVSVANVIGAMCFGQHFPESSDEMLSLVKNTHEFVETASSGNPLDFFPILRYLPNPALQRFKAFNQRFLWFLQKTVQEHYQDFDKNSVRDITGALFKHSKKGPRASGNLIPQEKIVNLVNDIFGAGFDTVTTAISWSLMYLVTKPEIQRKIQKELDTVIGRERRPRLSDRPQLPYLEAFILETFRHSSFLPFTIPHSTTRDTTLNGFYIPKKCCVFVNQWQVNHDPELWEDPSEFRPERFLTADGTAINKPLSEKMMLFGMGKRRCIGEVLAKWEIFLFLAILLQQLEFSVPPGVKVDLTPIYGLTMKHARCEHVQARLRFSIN

compound	target_or_system	AC50
COc1ccc(CCNC(=O)CCCCCN2C(=O)c3ccccc3C2=O)cc1	Cytochrome P450 1A2 (Homo sapiens, UniProt P05177)	25.1 µM (inconclusive)

Name the recorded AC50 for CCOC(=O)c1ccc(OC(=O)CCCCCNC(=N)N)cc1 .
12.6 µM (inconclusive)

Name the recorded AC50 for Cc1cc(C(C)(C)CC(C)(C)C)ccc1OCCOCC[N+](C)(C)Cc1ccccc1 .
12.6 µM (inconclusive)

Name the recorded AC50 for Cc1cc(C(=O)OCC(=O)NCCCN2CCCC2=O)c2ccccc2n1 .
14.1 µM (inconclusive)

Name the recorded AC50 for NC(=O)CI [IODOACETAMIDE] .
31.6 µM (inconclusive)

Name the recorded AC50 for COc1ccc(NS(=O)(=O)c2ccc(NC(=O)c3cnn4c(C(F)F)cc(-c5ccc(C)cc5)nc34)cc2)cc1 .
0.891 µM (inconclusive)

Name the recorded AC50 for CCCn1c(CC)nc([N+](=O)[O-])c1S(=O)(=O)c1ccccc1 .
22.4 µM (inconclusive)

---

Activity calls are given as the source filed them.
This section lists IC50 readings for Glyceraldehyde-3-phosphate dehydrogenase (Homo sapiens).

# example entries with known answers
compound	target_or_system	IC50
COc1ccc(S(=O)(=O)Nc2cccnc2)c(OC)c1	Glyceraldehyde-3-phosphate dehydrogenase (Homo sapiens)	> 100 µM (not active)
COc1cc(N(O)O)ccc1S(=O)(=O)Nc1cnc2ccccc2c1	Glyceraldehyde-3-phosphate dehydrogenase (Homo sapiens)	> 100 µM (not active)
O=C(NCCCCO)c1cc(-c2ccc(Cl)cc2Cl)n[nH]1	Glyceraldehyde-3-phosphate dehydrogenase (Homo sapiens)	> 10 µM (inconclusive)
CN1CCN(C2CC(=O)N(c3ccc(Cl)c(Cl)c3)C2=O)CC1 (stereo unspecified)	Glyceraldehyde-3-phosphate dehydrogenase (Homo sapiens)	> 100 µM (not active)
CN(C)C1=C(Cl)C(=O)N(c2ccc(C(F)(F)F)cc2)C1=O	Glyceraldehyde-3-phosphate dehydrogenase (Homo sapiens)	> 50 µM (inconclusive)

Could you now consider this next compound?
// lookup IC50 | system=Glyceraldehyde-3-phosphate dehydrogenase (Homo sapiens) | key= CCC(CC)c1nnc(NC(=O)Cc2cccs2)s1
99.7 µM (active)

---

Measured AC50 of individual entries
Molecular target: UniProtKB P33261
Sequence (P33261 whole entry): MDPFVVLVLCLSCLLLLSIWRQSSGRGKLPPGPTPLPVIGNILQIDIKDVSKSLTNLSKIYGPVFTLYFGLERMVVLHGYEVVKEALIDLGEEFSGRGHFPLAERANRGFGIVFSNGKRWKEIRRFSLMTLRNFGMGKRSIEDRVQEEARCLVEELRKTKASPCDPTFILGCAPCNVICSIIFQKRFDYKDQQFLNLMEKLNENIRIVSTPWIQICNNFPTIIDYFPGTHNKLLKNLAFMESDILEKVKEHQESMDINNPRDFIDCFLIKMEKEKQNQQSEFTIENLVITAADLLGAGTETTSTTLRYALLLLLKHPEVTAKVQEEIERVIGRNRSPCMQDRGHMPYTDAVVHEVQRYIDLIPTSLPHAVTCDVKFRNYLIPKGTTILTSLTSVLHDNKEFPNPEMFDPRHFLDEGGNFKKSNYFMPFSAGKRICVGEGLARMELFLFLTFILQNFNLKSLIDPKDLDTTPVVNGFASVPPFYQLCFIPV
Assay: Cytochrome panel assay with activity outcomes. Panel member name: p450-cyp2c19 Compounds with AC50 equal or less than 10 uM are considered active
Format: functional
Conditions: read-out: AC50

compound	AC50
COC(=O)[C@@H]1CC[C@H](C)[C@@H](c2ccc(C)cc2)N1C(=O)c1ccc(/C=N\OC[C@@H](C)[C@H](OCc2ccccc2)C(C)C)cc1	6.31 µM (inconclusive)
COc1ccc(Nc2nnc(-c3ccc(N4CCOCC4)c([N+](=O)[O-])c3)c3ccccc23)cc1	15.8 µM (inconclusive)
COc1ccc(NS(=O)(=O)c2ccc(NC(=O)c3cnn4c(C(F)F)cc(-c5ccc(C)cc5)nc34)cc2)cc1	2.24 µM (inconclusive)
Cc1nn(C)cc1C(=O)NN=C(S)Nc1ccccc1	22.4 µM (inconclusive)
C[C@@H](Cc1ccccc1)NCCC(c1ccccc1)c1ccccc1	7.94 µM (inconclusive)

// lookup AC50 | system=UniProtKB P33261 | key= CSc1nncn1/N=C/c1ccc2c(c1)OCO2
25.1 µM (inconclusive)

// lookup AC50 | system=UniProtKB P33261 | key= Cc1ccccc1N(C(=O)Cc1cccs1)C(C(=O)NCC1CCCO1)c1cccnc1 (centres undefined)
28.2 µM (inconclusive)

// lookup AC50 | system=UniProtKB P33261 | key= NC(=O)CI [IODOACETAMIDE]
39.8 µM (inconclusive)

// lookup AC50 | system=UniProtKB P33261 | key= CCn1ccc(C(=O)NC2C(=O)N3C(C(=O)O)=C(C)CSC23)n1 (centres undefined)
14.1 µM (inconclusive)

---

Biological target: Rac GTPase-activating protein 1 (Homo sapiens, UniProt Q9H0H5)
Sequence (Q9H0H5 whole entry): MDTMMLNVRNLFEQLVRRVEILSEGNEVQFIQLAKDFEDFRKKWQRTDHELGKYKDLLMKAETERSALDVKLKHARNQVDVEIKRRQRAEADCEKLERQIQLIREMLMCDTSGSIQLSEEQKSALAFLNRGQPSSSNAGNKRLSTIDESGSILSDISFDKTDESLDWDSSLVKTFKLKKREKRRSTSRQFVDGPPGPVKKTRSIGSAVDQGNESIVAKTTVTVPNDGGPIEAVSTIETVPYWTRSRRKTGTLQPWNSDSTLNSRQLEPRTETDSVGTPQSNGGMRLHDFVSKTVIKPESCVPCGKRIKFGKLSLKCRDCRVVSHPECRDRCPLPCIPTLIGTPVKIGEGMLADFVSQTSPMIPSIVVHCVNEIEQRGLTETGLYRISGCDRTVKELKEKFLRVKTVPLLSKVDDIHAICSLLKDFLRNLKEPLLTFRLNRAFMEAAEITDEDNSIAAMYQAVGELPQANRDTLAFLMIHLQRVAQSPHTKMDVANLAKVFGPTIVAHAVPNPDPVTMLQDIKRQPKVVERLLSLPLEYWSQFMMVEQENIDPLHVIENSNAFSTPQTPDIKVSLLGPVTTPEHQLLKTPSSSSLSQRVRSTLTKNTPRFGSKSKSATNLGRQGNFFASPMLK
Experiment: blockers of MgcRacGAP-driven Rac1 GTP hydrolysis – biochemical, ADP Hunter fluorescence, primary and confirmatory, confirmation (AID 624330)
Format: functional
The source made the active and inactive calls.
Measured IC50 of individual entries

// lookup IC50 | system=Rac GTPase-activating protein 1 (Homo sapiens, UniProt Q9H0H5) | key= C=CCn1c(N/N=C/c2ccc(O)cc2)nc2ccccc2c1=O
46.8 µM (active)

// lookup IC50 | system=Rac GTPase-activating protein 1 (Homo sapiens, UniProt Q9H0H5) | key= O=C(O)c1cc(N2N=C(C(F)(F)F)/C(=C/C=C/c3ccco3)C2=O)ccc1Cl
10.6 µM (active)

// lookup IC50 | system=Rac GTPase-activating protein 1 (Homo sapiens, UniProt Q9H0H5) | key= CC(C)C(=O)Nc1ccc(Nc2ccccc2)cc1
51.1 µM (active)

// lookup IC50 | system=Rac GTPase-activating protein 1 (Homo sapiens, UniProt Q9H0H5) | key= COCCNC(=O)Cn1cc(/C=N/NC(=O)c2ccc(Oc3ccc(O)cc3)cc2)c2ccccc21
53.3 µM (active)

// lookup IC50 | system=Rac GTPase-activating protein 1 (Homo sapiens, UniProt Q9H0H5) | key= COc1cc(/C=C/c2nc(O)c3ccccc3n2)ccc1O
41.4 µM (active)

// lookup IC50 | system=Rac GTPase-activating protein 1 (Homo sapiens, UniProt Q9H0H5) | key= C/C(CC(=O)Nc1ccc(N(C)C)cc1)=N\NC(=O)c1ccc([N+](=O)[O-])cc1Cl
66.7 µM (active)

// lookup IC50 | system=Rac GTPase-activating protein 1 (Homo sapiens, UniProt Q9H0H5) | key= Cc1ccc(C(C2=C(O)CC(C)(C)CC2=O)C2C(=O)CC(C)(C)CC2=O)o1 (stereo unspecified)
56.4 µM (active)

---

Molecular target: UniProtKB P05177
Measured AC50 of individual entries

# example entries with known answers
compound	readout_kind	value_reported
COc1ccc(-c2cnnn2-c2ccc(NC(=O)c3ccco3)cc2)cc1OC	AC50	14.1 µM (inconclusive)
CCOC(=O)c1cnn(-c2cc(Oc3ccccc3)ncn2)c1N	AC50	14.1 µM (inconclusive)
O=C(c1cc(C(F)(F)F)cc(C(F)(F)F)c1)N1CCC2(CC1)CN(Cc1ccncc1)C2	AC50	20 µM (inconclusive)
COc1ccc(CNc2nc3ccccc3n2Cc2ccccc2)cc1OC	AC50	22.4 µM (inconclusive)
CSc1nc(O)c2c(n1)N=C(C)/C(=C(/O)OC(C)C)C2c1ccncc1 (centres undefined)	AC50	20 µM (inconclusive)

// lookup AC50 | system=UniProtKB P05177 | key= Oc1cccc2c(O)nccc12
15.8 µM (inconclusive)

// lookup AC50 | system=UniProtKB P05177 | key= CCN1CC=C2C(C#N)=C(N)C(C#N)(C#N)[C@H](c3ccoc3)[C@H]2C1
39.8 µM (inconclusive)

// lookup AC50 | system=UniProtKB P05177 | key= CN1CCN(c2ncncc2-c2ccccc2C(F)(F)F)CC1
31.6 µM (inconclusive)

// lookup AC50 | system=UniProtKB P05177 | key= NCCc1ccc(S(=O)(=O)F)cc1
15.8 µM (inconclusive)

---

Target: Tyrosine-protein phosphatase non-receptor type 11 (Homo sapiens, UniProt Q06124)
Sequence (Q06124 whole entry): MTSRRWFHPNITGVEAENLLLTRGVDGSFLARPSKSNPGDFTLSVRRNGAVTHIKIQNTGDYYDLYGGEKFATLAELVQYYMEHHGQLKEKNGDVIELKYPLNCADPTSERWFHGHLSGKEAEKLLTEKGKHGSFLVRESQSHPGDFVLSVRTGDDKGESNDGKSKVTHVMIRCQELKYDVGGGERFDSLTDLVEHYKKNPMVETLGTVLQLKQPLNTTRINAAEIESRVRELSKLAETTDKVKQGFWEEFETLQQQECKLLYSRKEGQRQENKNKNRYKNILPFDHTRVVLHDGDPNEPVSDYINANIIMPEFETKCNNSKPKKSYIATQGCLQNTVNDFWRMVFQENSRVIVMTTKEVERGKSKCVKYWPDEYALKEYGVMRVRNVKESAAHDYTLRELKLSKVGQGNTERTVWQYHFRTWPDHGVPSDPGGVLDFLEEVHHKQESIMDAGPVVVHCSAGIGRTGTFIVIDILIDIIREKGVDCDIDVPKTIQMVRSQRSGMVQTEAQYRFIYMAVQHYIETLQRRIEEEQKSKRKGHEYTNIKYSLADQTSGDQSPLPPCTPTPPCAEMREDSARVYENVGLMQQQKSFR
Assay: PTPN11 enzyme inhibitors – biochemical, selectivity assay for STEP inhibitor project, dose response (AID 602367)
Type: functional
Details: read-out: IC50_Mean
Calls of active or inactive are those of the source.
readout_kind: IC50

# example entries with known answers
molecule	IC50
CCOC(=O)N1CCC(N(CCN(C)C)C(=S)Nc2cc(Cl)ccc2C)CC1	11.8 µM (active)
C/C(=N\Nc1ccc(S(N)(=O)=O)cc1[N+](=O)[O-])c1cccs1	2.13 µM (active)

Could you now consider this next compound?
Name the recorded IC50 for COc1ccccc1NS(=O)(=O)c1cc(NC(=S)NCCN2CCOCC2)ccc1N1CCOCC1 .
0.891 µM (active)
